Measured IC50 of individual entries
# Tested on: T47D
# ASSAY TEXT: Inhibition of human T47D cells assessed as cell viability under hypoxic condition after 48 hrs
# Assay type: functional, cell-based
The reply should contain only the number, in µM.

Previously resolved entries follow.
# MOLECULE, READOUT UNITS, IC50
measured = [
    ("CC(=O)C1=CC[C@H]2[C@]3(C)CC[C@H]4C(C)(C)CCC[C@]4(C(=O)O)[C@H]3CC(=O)[C@]2(C)[C@H]1C=O", "µM", 1.9),
    ("CC1OC(=O)[C@H]2[C@H]1[C@@H](O)C[C@H]1[C@]3(C)CC[C@H]4C(C)(C)CCC[C@]4(C)[C@H]3C[C@@H](O)[C@]21C (stereo partly drawn)", "µM", 5.3),
]

Field: next molecule
Inquiry: Looking for the measured IC50 of `COc1ccc2c(O)c(O)ccc2c1-c1c(OC)ccc2c(O)c(O)ccc12` , can you help?
Reply text: 8.3
